- Test system: L1210 leukemia ip in BDF1 mice, survival T/C
- EXPERIMENTAL PROTOCOL: NCI In Vivo Anticancer Drug Screen. Data for tumor model L1210 Leukemia (intraperitoneal) in B6D2F1 (BDF1) mice
- CONDITION DESCRIPTION: endpoint: mean survival time; dose: 25.0 mg/kg/injection; schedule: Q01DX009 (ip); vehicle: saline; higher = longer survival
Inconclusive results and toxic doses are left out.
PROPERTY NAME: T/C

COMPOUND	OBS VALUE
OCCOCCOCCN1CCN(C(c2ccccc2)c2ccc(Cl)cc2)CC1 (centres undefined)	100 % of control
CCCCNCCO	96 % of control
O=C(Cn1ccc(=O)[nH]c1=O)Nc1nccs1	103 % of control
CCN(C1CCCCC1)C1CCCCC1	100 % of control
O=C(NOS(=O)(=O)O)c1ccccc1	110 % of control
CC1(C)CCN1Cc1ccccc1	101 % of control
CC(=O)C=O	88 % of control
[Cu+2].[NH-]C(CC(N)=O)C(=O)O.[NH-]C(CC(N)=O)C(=O)O (centres undefined)	98 % of control
CN(C)/C=N\c1ncnc2c1c(C#N)cn2C1OC(CO)C(O)C1O (centres undefined)	117 % of control
COc1cc(CN(C)C2CCCCC2)cc(OC)c1OC	100 % of control
CC(C)(CO)CO	97 % of control
O=C(CC1(Cl)C(F)(F)C(F)(F)C1(F)F)c1ccccc1	100 % of control
CC1CN1N (centres undefined)	101 % of control
NC(CSC(c1ccccc1)(c1ccccc1)c1ccc(Br)cc1)C(=O)O (centres undefined)	111 % of control

Origin of the recorded values: PubChem BioAssay AID248
